molecular target: HER2 (A775_G776insYVMA) expressing Ba/F3 stable cell line (Homo sapiens, UniProt P04626, DUP772-775, cells depend on it); experiment: Cellular proliferation (Alamar Blue) assay, HER2 A775_G776insYVMA Ba/F3; type: cell-based; details: 72 hr, read-out: YVMA IC50
Sequence (P04626 with tags, fused parts or gaps DUP772-775): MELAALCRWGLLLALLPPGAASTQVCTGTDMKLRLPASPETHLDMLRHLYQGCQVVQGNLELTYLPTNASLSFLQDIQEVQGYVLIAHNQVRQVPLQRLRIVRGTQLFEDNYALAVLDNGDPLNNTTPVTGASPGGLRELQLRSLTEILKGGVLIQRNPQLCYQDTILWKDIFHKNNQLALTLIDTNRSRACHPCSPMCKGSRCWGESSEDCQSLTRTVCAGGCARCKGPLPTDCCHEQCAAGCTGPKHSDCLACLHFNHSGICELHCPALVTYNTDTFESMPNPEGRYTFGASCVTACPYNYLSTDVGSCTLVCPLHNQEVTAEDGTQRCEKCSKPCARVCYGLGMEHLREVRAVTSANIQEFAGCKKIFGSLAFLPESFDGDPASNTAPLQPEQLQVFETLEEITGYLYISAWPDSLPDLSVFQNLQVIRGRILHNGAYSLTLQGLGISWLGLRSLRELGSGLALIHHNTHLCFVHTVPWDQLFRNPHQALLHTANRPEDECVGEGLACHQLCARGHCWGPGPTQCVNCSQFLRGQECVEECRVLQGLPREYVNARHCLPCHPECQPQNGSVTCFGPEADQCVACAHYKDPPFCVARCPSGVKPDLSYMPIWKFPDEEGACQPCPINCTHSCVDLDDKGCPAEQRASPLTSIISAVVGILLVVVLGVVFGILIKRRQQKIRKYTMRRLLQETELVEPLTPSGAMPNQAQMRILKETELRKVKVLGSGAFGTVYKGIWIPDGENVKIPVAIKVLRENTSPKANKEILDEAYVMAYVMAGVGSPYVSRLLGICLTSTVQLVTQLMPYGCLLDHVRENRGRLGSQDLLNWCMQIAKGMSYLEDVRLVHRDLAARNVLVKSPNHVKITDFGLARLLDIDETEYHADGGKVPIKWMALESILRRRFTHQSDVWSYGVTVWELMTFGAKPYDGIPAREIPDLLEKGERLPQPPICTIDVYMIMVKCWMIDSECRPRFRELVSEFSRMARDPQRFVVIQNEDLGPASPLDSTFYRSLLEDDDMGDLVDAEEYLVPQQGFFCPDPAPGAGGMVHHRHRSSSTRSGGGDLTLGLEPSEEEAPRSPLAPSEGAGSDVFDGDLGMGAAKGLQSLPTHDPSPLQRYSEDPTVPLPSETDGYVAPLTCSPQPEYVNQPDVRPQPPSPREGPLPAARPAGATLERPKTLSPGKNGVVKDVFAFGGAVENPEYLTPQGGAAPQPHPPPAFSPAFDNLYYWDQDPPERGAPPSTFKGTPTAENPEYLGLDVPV
Counter-ions that a name gives are not always drawn.
reported endpoint: GI50 (nM)

Below, each entry is followed by its recorded GI50 result.
Qu. Please report the measured GI50 for C=CC(=O)Nc1ccc(F)c(Nc2nc(Nc3cnn(C)c3)ncc2-c2ccn3ncnc3c2)c1
Ans. 444

Qu. Indicate the recorded GI50 value for this compound: C=CC(=O)Nc1ccc(F)c(Nc2nc(Nc3cnn(C)c3)ncc2-c2ccn3ccnc3c2)c1
Ans. 151

Qu. Indicate the recorded GI50 value for this compound: C=CC(=O)Nc1ccc(F)c(Nc2nc(Nc3cnn(C)c3)ncc2-c2cncs2)c1
Ans. 54

Qu. Consider the compound C=CC(=O)Nc1ccc(F)c(Nc2nc(Nc3cnn(C)c3)ncc2-c2ccc(C3CC3)cc2)c1 [Compound 128, trifluoroacetate] . State its measured GI50.
Ans. 654

Qu. Input C=CC(=O)Nc1cccc(Nc2nc(Nc3cnn(C)c3)ncc2-c2ccc(CC(F)(F)F)cc2)c1 , output reported GI50.
Ans. 110

Qu. Tell me its GI50 given C=CC(=O)Nc1ccc(F)c(Nc2nc(Nc3cnn(C)c3)ncc2-c2ccc(C(F)(F)F)cc2)c1 [Compound 243] as the entry.
Ans. 237

a: C=CC(=O)Nc1ccc(F)c(Nc2nc(Nc3cnn(C)c3)ncc2-c2ccccc2)c1
b: C=CC(=O)Nc1cncc(Nc2nc(Nc3cnn(C)c3)ncc2-c2ccc(C(F)(F)F)cc2)c1
Qu. Compare reported GI50 values for a and b . Which is lower? Respond with the label that goes with your answer.
Ans. b
(b: 258 nM, a: 465 nM)

###

target: EGFR (A767_dupASV) expressing Ba/F3 stable cell line (Homo sapiens, UniProt P00533, DUP767-769, cells depend on it); assay: Cellular proliferation (Alamar Blue) assay, EGFR A767_dupASV Ba/F3; format: cell-based; conditions: 72 hr, read-out: A767 IC50
Sequence (P00533 with tags, fused parts or gaps DUP767-769): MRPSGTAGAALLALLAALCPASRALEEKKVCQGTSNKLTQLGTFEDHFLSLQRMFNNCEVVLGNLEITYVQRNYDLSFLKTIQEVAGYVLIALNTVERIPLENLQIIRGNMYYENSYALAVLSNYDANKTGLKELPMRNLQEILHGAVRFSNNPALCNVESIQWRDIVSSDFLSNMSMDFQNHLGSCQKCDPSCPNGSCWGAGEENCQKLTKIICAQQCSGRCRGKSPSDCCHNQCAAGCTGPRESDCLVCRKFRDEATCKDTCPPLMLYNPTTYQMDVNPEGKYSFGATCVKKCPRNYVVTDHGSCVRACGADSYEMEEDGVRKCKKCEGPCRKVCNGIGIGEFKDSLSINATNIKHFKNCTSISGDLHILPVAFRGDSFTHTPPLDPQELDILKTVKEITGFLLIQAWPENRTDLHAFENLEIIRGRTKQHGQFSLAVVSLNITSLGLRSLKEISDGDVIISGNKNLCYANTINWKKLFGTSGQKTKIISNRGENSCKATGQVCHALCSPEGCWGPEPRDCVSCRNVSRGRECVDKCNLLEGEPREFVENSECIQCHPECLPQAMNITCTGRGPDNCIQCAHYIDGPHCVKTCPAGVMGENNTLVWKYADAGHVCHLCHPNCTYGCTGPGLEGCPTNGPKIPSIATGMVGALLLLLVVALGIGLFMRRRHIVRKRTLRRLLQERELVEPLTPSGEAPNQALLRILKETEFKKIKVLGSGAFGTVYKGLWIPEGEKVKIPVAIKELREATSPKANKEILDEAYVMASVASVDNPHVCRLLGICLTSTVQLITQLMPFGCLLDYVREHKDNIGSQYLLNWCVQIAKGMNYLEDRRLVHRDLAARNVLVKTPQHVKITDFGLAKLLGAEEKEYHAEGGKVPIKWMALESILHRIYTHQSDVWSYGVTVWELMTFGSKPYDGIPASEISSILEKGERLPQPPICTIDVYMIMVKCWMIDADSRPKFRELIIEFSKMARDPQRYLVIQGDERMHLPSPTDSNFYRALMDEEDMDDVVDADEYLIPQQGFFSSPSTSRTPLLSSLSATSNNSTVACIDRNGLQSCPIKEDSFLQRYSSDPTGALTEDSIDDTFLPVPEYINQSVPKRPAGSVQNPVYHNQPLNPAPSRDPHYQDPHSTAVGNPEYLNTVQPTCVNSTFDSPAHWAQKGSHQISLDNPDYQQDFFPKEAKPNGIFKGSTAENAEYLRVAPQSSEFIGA
Counter-ions that a name gives are not always drawn.
reported endpoint: GI50 (nM)

Study these solved cases before continuing.
Qu. Report GI50 for C=CC(=O)Nc1cccc(Oc2nc(Nc3cnn(C)c3)ncc2-c2cncc(F)c2)c1
Ans. 27

Qu. Quote GI50 reported for C=CC(=O)Nc1ccc(F)c(Nc2nc(Nc3cnn(C)c3)ncc2NC(=O)c2ccccc2)c1 please.
Ans. 1470

Qu. Give reported GI50 value for C=CC(=O)Nc1ccc(F)c(Nc2nc(Nc3cnn(C)c3)ncc2-c2ccc(C(F)(F)F)cc2)c1 [Compound 37]
Ans. 73

1: C=CC(=O)Nc1ccc(F)c(Nc2nc(Nc3cnn(C)c3)ncc2-c2ccc(C(F)F)cc2)c1
2: C=CC(=O)Nc1ccc(F)c(Nc2nc(Nc3cc(C)ns3)ncc2-c2ccc(C(F)(F)F)cc2)c1
Qu. Which numeric GI50 is bigger, that of 1 or that of 2 ? Give the label under which the chosen entry appears.
Ans. 2

a: C=CC(=O)Nc1ccc(F)c(Nc2nc(Nc3cnn(C)c3)ncc2-c2cncc(N(C)C)c2)c1 [Compound 116, trifluoroacetate]
b: C=CC(=O)Nc1cccc(Nc2nc(Nc3cnn(C)c3)ncc2NC(=O)c2ccccc2)c1
Qu. Look at a and b . Which one has the lower recorded GI50 number? Field: selected label. Fill in the label of the entry you choose.
Ans. a
(a: 94 nM, b: 2240 nM)

I: C=CC(=O)Nc1cc(Nc2nc(Nc3cnn(C)c3)ncc2-c2ccc(C(F)(F)F)cc2)ccc1N(C)CCN(C)C
II: C=CC(=O)Nc1cccc(Oc2nc(Nc3cnn(C)c3)ncc2-c2ccc(C)nc2)c1
III: C=CC(=O)Nc1ccc(F)c(Nc2nc(Nc3cnn(CCO)c3)ncc2Cl)c1
Qu. # ascending order, key=GI50 Put the labels in the requested order and list them out.
Ans. II, III, I
(II: 90 nM, III: 371 nM, I: 704 nM)

I: C=CC(=O)Nc1ccc(F)c(Nc2nc(Nc3cnn(C)c3)ncc2-c2ccc(C(F)(F)C(F)(F)F)cc2)c1
II: C=CC(=O)Nc1ccc(F)c(Nc2nc(Nc3cnn(CC(C)(C)O)c3)ncc2Cl)c1
III: CN(C)C/C=C/C(=O)Nc1cccc(Nc2nc(Nc3cn(C)nc3Cl)ncc2-c2ccc(C(F)(F)F)cc2)c1
IV: C=CC(=O)Nc1ccc(F)c(Nc2nc(Nc3cnn(C)c3)ncc2-c2cnc(C(F)(F)F)nc2)c1
V: C=CC(=O)Nc1cccc(Oc2nc(Nc3cnn(C)c3)ncc2-c2cncc(C)c2)c1
Qu. rank_up(items): orders items by reported GI50 in ascending numerical order. Answer format: the labels, ordered as requested.
Ans. IV, I, V, III, II

A: C=CC(=O)Nc1cccc(Oc2nc(Nc3cnn(C)c3)ncc2-c2ccc(OC(F)F)nc2)c1
B: C=CC(=O)Nc1ccc(F)c(Nc2nc(Nc3cnn(C4CCC(O)CC4)c3)ncc2Cl)c1 (stereo not drawn)
Qu. Pick one: A or B . Which one has the lower reported GI50? Please indicate the selected item by its label.
Ans. A
(A: 118 nM, B: 930 nM)

a: [2H]C([2H])([2H])n1cc(Nc2ncc(-c3ccc(C(F)(F)F)cc3)c(Nc3cc(NC(=O)C=C)ccc3F)n2)cn1
b: C=CC(=O)Nc1cc(Nc2nc(Nc3cnn(C)c3)ncc2-c2ccc(C(F)(F)F)cc2)c(F)cn1
Qu. Of the pair a and b , name the member with the lesser recorded GI50. Answer by quoting the chosen item's label.
Ans. a

###

target: HER2 (A775_G776insYVMA) expressing Ba/F3 stable cell line (Homo sapiens, UniProt P04626, DUP772-775, cells depend on it); experiment: Cellular proliferation (Alamar Blue) assay, HER2 A775_G776insYVMA Ba/F3; assay type: cell-based; details: 72 hr, read-out: YVMA IC50
reported endpoint: GI50 (nM)

Here are 4 molecules together with their reported answers.
Qu. Give a short answer stating reported GI50 for C=CC(=O)Nc1ccc(F)c(Nc2nc(Nc3cnn(C)c3)ncc2C2=CCOC2)c1 [Compound 261] .
Ans. 222

Qu. // fetch GI50 given entry C=CC(=O)Nc1ccc(F)c(Nc2nc(Nc3cnn(C)c3)ncc2-c2ccnc(OC)c2)c1 [Compound 68]
Ans. 128

Qu. Give GI50 for C=CC(=O)Nc1ccc(F)c(Nc2nc(Nc3cnn(C)c3)ncc2-c2ccc(C#N)cc2)c1 [Compound 62]
Ans. 2590

Qu. Retrieve GI50 measured for [2H]C([2H])=CC(=O)Nc1ccc(F)c(Nc2nc(Nc3cnn(C([2H])([2H])[2H])c3)ncc2-c2ccc(C(F)(F)F)cc2)c1 [Compound 248] and print it.
Ans. 250

a: CN(C)C/C=C/C(=O)Nc1ccc(C#Cc2ccccc2)c(Nc2nc(Nc3cnn(C)c3)ncc2Cl)c1 [Compound 179]
b: C=CC(=O)Nc1ccc(F)c(Nc2nc(Nc3cnn(C)c3)ncc2-c2ccc3c(cnn3C)c2)c1 [Compound 270]
c: C=CC(=O)Nc1ccc(F)c(Nc2nc(Nc3cnn(C4COC4)c3)ncc2-c2ccc(Br)cc2)c1 [Compound 205]
Qu. Task for the reader: rank each entry by its GI50, from the minimum upward. List labels; respect the requested ordering.
Ans. c, b, a

###

molecular target: EGFR(D770_N771insSVD) expressing Ba/F3 stable cell line (Homo sapiens, UniProt P00533, DUP768-770, cells depend on it); assay: Cellular proliferation (Alamar Blue) assay, EGFR D770_N771insSVD Ba/F3; assay type: cell-based; settings: 72 hr, read-out: D770 IC50
Sequence (P00533 with tags, fused parts or gaps DUP768-770): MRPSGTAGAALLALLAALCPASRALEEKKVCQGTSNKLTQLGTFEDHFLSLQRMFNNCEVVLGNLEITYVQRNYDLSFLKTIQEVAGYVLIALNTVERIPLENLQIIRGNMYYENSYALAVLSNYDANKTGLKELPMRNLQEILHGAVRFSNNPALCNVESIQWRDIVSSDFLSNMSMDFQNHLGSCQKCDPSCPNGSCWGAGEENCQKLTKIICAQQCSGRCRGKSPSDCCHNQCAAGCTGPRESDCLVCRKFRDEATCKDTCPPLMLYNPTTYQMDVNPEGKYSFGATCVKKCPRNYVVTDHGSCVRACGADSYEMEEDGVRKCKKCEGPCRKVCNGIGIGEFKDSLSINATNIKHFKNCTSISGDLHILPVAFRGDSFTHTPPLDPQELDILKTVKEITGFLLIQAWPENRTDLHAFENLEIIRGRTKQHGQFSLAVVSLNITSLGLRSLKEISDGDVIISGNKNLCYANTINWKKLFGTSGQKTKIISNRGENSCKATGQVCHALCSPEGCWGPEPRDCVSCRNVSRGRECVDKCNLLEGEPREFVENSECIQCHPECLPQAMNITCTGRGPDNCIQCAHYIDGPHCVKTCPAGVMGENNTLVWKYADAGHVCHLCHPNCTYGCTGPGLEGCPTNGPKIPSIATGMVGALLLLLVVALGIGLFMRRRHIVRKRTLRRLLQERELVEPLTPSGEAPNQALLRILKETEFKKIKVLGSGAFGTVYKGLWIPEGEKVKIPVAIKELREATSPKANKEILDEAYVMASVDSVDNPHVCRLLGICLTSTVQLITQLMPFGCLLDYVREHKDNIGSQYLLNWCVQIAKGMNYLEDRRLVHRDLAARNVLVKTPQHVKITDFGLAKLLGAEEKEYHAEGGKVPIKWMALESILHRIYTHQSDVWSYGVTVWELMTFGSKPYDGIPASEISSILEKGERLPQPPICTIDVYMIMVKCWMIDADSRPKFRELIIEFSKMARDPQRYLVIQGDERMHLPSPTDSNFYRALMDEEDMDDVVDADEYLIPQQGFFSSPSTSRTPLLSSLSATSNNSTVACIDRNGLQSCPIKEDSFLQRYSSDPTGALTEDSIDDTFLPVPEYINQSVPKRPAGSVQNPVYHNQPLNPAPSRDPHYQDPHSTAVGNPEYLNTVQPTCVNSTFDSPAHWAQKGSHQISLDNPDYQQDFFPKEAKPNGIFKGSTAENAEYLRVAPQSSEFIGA
Counter-ions that a name gives are not always drawn.
reported endpoint: GI50 (nM)

Check out these entries, answers already filled in.
Qu. Please report GI50 for the following compound: C=CC(=O)Nc1cccc(Nc2nc(Nc3cnn(C)c3)ncc2-c2ccc(C(F)(F)F)cc2)c1
Ans. 48

Qu. Report GI50 for C=CC(=O)Nc1cccc(Oc2nc(Nc3cnn(C)c3)ncc2-c2ccc(C(F)(F)F)nc2)c1
Ans. 104

Qu. Complete the entry with GI50 for C=CC(=O)Nc1ccc(F)c(Nc2nc(Nc3cn(CCO)nc3Cl)ncc2-c2ccc(C(F)(F)F)cc2)c1
Ans. 105

Qu. Identify measured GI50 associated with [2H]C([2H])=CC(=O)Nc1ccc(F)c(Nc2nc(Nc3cnn(C)c3)ncc2-c2ccc(Br)cc2)c1
Ans. 34

Qu. // Input: C=CC(=O)Nc1cccc(Nc2nc(Nc3cnn(C)c3)ncc2-c2ccc(CC(F)(F)F)cc2)c1 . Output its GI50 only.
Ans. 21

A: C=CC(=O)Nc1ccc(F)c(Nc2nc(Nc3ccsc3)ncc2-c2ccc(C(F)(F)F)cc2)c1 [Compound 46, trifluoroacetate]
B: C=CC(=O)Nc1ccc(F)c(Nc2nc(Nc3cnn(C)c3)ncc2-c2cncc(C)c2)c1
Qu. Could you point out whether the larger GI50 belongs to A or to B ? // return label of chosen record
Ans. A
(A: 973 nM, B: 30 nM)

a: C=CC(=O)Nc1ccc(F)c(Oc2nc(Nc3cnn(CCO)c3)ncc2Cl)c1
b: C=CC(=O)Nc1ccc(F)c(Nc2nc(Nc3cnn(C)c3)ncc2-c2ccc(Oc3cccc(F)c3)cc2)c1
c: C=CC(=O)Nc1cccc(Nc2nc(Nc3cnn(C)c3)ncc2-c2ccc(Br)cc2)c1
Qu. List by increasing GI50. List labels; respect the requested ordering.
Ans. c, b, a
(c: 29 nM, b: 1160 nM, a: 2150 nM)
